assayedTarget: human RGS14 RGS-box (wild-type) (Homo sapiens, UniProt O43566)
Construct: human RGS14 RGS-box (aa 46–195 of UniProt O43566); host or cells: E. coli
Sequence (O43566 46-195): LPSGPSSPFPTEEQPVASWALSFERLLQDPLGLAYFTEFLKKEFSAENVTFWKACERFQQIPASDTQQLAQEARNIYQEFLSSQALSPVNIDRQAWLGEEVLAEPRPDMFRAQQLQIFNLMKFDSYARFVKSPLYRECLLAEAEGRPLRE
procedureText: Transcreener GDP RGScreen fluorescence polarization assay of RGS14 RGS-box GAP activity on Gαi1(DM)
Assay type: biochemical
appliedConditions: wild-type RGS14 RGS-box GAP activity, Gαi1(DM), Transcreener GDP RGScreen; read-out: RGS14 pIC50 (converted)
Catalogue of IC50 values
readoutName: IC50

>>> print(df.to_string())
                                    molecule  readoutname   reported
 0  CCOc1ccc(C(=O)C(C)Sc2nc3ccccc3n2C)cc1 (stereo not drawn)         IC50  > 1000 µM
 1  O=C(O)CC1Sc2nnc(C3COc4ccccc4O3)n2N=C1c1cccs1 (stereo not drawn)         IC50    20.4 µM
 2  COc1ccc2nc(SCCOCC3CCCO3)[nH]c2c1 (stereo not drawn)         IC50  > 1000 µM
 3  CCn1c(SC(C)C(=O)c2ccccc2)nc2cc(S(=O)(=O)N3CCOCC3)ccc21 (stereo not drawn)         IC50  > 1000 µM
 4  COc1ccc(OCc2nnc3n2N=C(c2cccc(N4CCCC4=O)c2)CS3)cc1         IC50     646 µM
 5  COc1ccc2nc(SC(C)C(=O)c3cc(C)c(C)cc3C)[nH]c2c1 (stereo not drawn)         IC50  > 1000 µM
 6  Cc1ccc2[nH]c(SC(C)C(=O)c3ccc(F)cc3F)nc2c1 (stereo not drawn)         IC50  > 1000 µM
 7  COc1ccc2nc(SC(C(=O)OC(C)(C)C)C(C)C)[nH]c2c1 (stereo not drawn)         IC50  > 1000 µM
 8  O=C(O)CC1Sc2nnc(C3CC3)n2N=C1c1ccc(F)cc1 (stereo not drawn)         IC50    91.2 µM
 9  CCn1c(SC(C)C(=O)c2ccc(NS(C)(=O)=O)cc2)nc2ccccc21 (stereo not drawn)         IC50  > 1000 µM
10  COc1ccc2nc(SC(C)C(=O)Nc3ccc(C)cc3)[nH]c2c1 (stereo not drawn)         IC50  > 1000 µM
11  COc1ccc(OCc2nnc3n2N=C(c2ccc(C)cc2)[C@@H](C)S3)cc1         IC50    20.4 µM
12  FC(F)Oc1ccc(C2=Nn3c(COc4ccccc4)nnc3SC2)cc1         IC50    36.3 µM
13  COc1ccc2nc(SC(C)C(=O)c3ccc(NC(C)=O)cc3)[nH]c2c1 (stereo not drawn)         IC50  > 1000 µM
14  CCn1c(SC(C)C(=O)c2ccc(F)cc2)nc2cc(S(N)(=O)=O)ccc21 (stereo not drawn)         IC50  > 1000 µM
15        CC(C)c1nnc2n1N=C(c1cc3ccccc3o1)CS2         IC50     191 µM
16  CCOc1ccc2nc(SCC(=O)c3ccc(CC)cc3)[nH]c2c1         IC50  > 1000 µM
17  COc1ccc2nc(SC(C)C(=O)c3ccc(OC)c(OC)c3)[nH]c2c1 (stereo not drawn)         IC50  > 1000 µM
18  COc1ccc2nc(SC(C)C(=O)c3cc(C)ccc3C)[nH]c2c1 (stereo not drawn)         IC50  > 1000 µM
19  CC(Sc1nc2ccccc2n1C(C)C)C(=O)c1ccc(C(C)C)cc1C(C)C (stereo not drawn)         IC50  > 1000 µM
20  Cc1ccc2[nH]c(SC(C)C(=O)c3ccc(F)cc3)nc2c1 (stereo not drawn)         IC50  > 1000 µM
21  COc1ccc2nc(SC(C)C(=O)c3ccc(F)cc3)[nH]c2c1 (stereo not drawn)         IC50  > 1000 µM
22  COc1ccc2nc(SCC(O)c3ccccc3)[nH]c2c1 (stereo not drawn)         IC50  > 1000 µM
23  COc1cccc(OCc2nnc3n2N=C(c2ccccc2)[C@H](CC(=O)O)S3)c1         IC50     170 µM
24   COc1ccc2nc(SCCC(=O)c3ccc(F)cc3)[nH]c2c1         IC50  > 1000 µM
25  Cc1ccc2[nH]c(SC(C)C(=O)c3cccc(F)c3)nc2c1 (stereo not drawn)         IC50  > 1000 µM
26  CCn1c(SC(C)C(=O)c2ccc(OC)cc2)nc2cc(S(N)(=O)=O)ccc21 (stereo not drawn)         IC50  > 1000 µM
27  CCC(Sc1nc2ccc(OC)cc2[nH]1)C(=O)c1ccc(OC)cc1 (stereo not drawn)         IC50  > 1000 µM
28  COc1ccc(-c2nnc3n2N=C(c2ccc(NC(C)=O)cc2)[C@@H](C)S3)cc1OC         IC50    30.2 µM
29  CCC(Sc1nc2ccc(OC)cc2[nH]1)C(=O)c1ccc(NC(C)=O)cc1 (stereo not drawn)         IC50  > 1000 µM
